Molecular target: C-X-C chemokine receptor type 6 (Homo sapiens) (UniProt O00574)
Sequence (O00574 whole entry, looked up): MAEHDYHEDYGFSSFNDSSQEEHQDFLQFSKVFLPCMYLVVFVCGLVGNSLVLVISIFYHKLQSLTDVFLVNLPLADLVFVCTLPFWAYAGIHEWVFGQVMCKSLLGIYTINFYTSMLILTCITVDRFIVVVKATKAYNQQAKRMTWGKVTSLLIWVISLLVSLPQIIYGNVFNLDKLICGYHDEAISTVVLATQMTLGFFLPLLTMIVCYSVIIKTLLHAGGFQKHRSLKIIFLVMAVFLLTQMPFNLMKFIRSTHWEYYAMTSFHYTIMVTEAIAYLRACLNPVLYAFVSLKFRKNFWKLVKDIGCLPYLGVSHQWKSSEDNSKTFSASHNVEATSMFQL
Assay: potency against CXCR6 with APJ panel – cell-based, beta-arrestin, DiscoveRx, uHTS hits, dose response (AID 624129)
Settings: CXCR6 beta-arrestin (DiscoveRx) antagonist cell assay, CXCR6, run 1, dose range 2
pIC50: −log10 of the molar value.
reported_endpoint: pIC50

[[record]]
compound = "COc1ccc(NC(=S)NNc2ccc([N+](=O)[O-])cc2S(=O)(=O)Nc2ccc(C)cc2C)cc1"
relation_sign = "<"
number = 4.10

[[record]]
compound = "Cn1cnc([N+](=O)[O-])c1S(=O)(=O)c1ccc(Cl)cc1"
relation_sign = "="
number = 4.84

[[record]]
compound = "O=C1c2cccc3c([N+](=O)[O-])ccc(c23)C(=O)N1c1ccccn1"
relation_sign = "="
number = 4.61

[[record]]
compound = "CCN(CC(=O)NC(C)(C)C)Cc1nc2c(Br)cc(Br)cc2c(=O)[nH]1"
relation_sign = "="
number = 4.91

[[record]]
compound = "COc1ccc(NC(=O)/C(Cl)=C(/Cl)S(=O)Cc2ccccc2)cn1 (stereo not given)"
relation_sign = "="
number = 5.17

[[record]]
compound = "Cc1cc(C)cc(N2C(=O)CC(Sc3nnnn3-c3ccccc3)C2=O)c1 (stereo not given)"
relation_sign = "="
number = 4.86

[[record]]
compound = "COc1cc(C(=O)NC2CC3CCCC(C2)N3CC(=O)Nc2ccccc2)cc(OC)c1OC (stereo not given)"
relation_sign = "="
number = 4.91

[[record]]
compound = "CC(=NO)C1CCC2C3CCC4=CC(=NO)CCC4(C)C3C(O)CC12C (stereo not given)"
relation_sign = "="
number = 4.90

[[record]]
compound = "Oc1ccc(Cl)c2cccnc12"
relation_sign = "="
number = 5.32

[[record]]
compound = "Cc1ccccc1CS(=O)(=O)c1ncc(Cl)c(C(=O)Nc2ccc(F)cc2)n1"
relation_sign = "="
number = 4.81


Every entry's value here was drawn from PubChem BioAssay AID624129.
